- experimentDescription: Selectivity ratio of IC50 for African green monkey Vero cells to IC50 for Plasmodium falciparum V1/S infected in human erythrocytes
- Type: toxicity, cell-based
- conditionDetails: read-out: Ratio IC50

compoundStructureString	selectivity ratio
Cl.Nc1nc(N)c(-c2ccccc2)c(CCCCCOc2ccccc2)n1	1
Cl.Nc1nc(N)c(-c2cccc(Cl)c2)c(CCCOc2ccccc2)n1	0.14

###

Listed next: entries and their corresponding IC50.
- Tested on: Plasmodium falciparum
- experimentDescription: Antimalarial activity against Plasmodium falciparum TM4/8.2 infected in human erythrocytes assessed as reduction in [3H]-hypoxanthine incorporation pretreated for 24 hrs followed by [3H]-hypoxanthine addition measured after 18 hrs by liquid scintillation counting method
- Assay type: functional, organism-based

compoundStructureString	targetEntity	IC50
CCOC(=O)CCCOc1ccccc1CCc1nc(N)nc(N)c1-c1ccccc1.Cl	Plasmodium falciparum	1250 nM
Cl.Nc1nc(N)c(-c2cccc(Cl)c2)c(CCCCOc2ccccc2)n1	Plasmodium falciparum	340 nM
Cl.Nc1nc(N)c(-c2ccccc2)c(COc2cccc(OCCCC(=O)O)c2)n1	Plasmodium falciparum	5240 nM
Cl.Nc1nc(N)c(-c2cccc(Cl)c2)c(CCCOc2cccc(OCCCC(=O)O)c2)n1	Plasmodium falciparum	49 nM
Cl.Nc1nc(N)c(-c2cccc(Cl)c2)c(CCc2ccccc2OCc2ccccc2)n1	Plasmodium falciparum	1940 nM
Cl.Nc1nc(N)c(-c2cccc(Cl)c2)c(COc2cccc(OCC(=O)O)c2)n1	Plasmodium falciparum	6010 nM
CCOC(=O)CCCOc1ccccc1CCc1nc(N)nc(N)c1-c1cccc(Cl)c1	Plasmodium falciparum	710 nM
Cl.Nc1nc(N)c(-c2ccccc2)c(CCCCCOc2ccccc2)n1	Plasmodium falciparum	380 nM
CCc1nc(N)nc(N)c1-c1ccccc1	Plasmodium falciparum	720 nM
Cl.Nc1nc(N)c(-c2cccc(Cl)c2)c(COc2cccc(OCCCC(=O)O)c2)n1	Plasmodium falciparum	1800 nM

###

- experimentDescription: Competitive inhibition of wild type Plasmodium falciparum dihydrofolate reductase expressed in Escherichia coli BL21(DE3)pLysS using dihydrofolate as substrate in presence of NADPH by UV-vis spectrophotometry analysis

compoundStructureString	unitAbbrev	Ki
Cl.Nc1nc(N)c(-c2ccccc2)c(CCCCOc2cccc(OCC(=O)O)c2)n1	nM	0.5
CCc1nc(N)nc(N)c1-c1ccc(Cl)cc1	nM	0.6
Cl.Nc1nc(N)c(-c2ccccc2)c(CCCCCOc2ccccc2)n1	nM	0.3
Cl.Nc1nc(N)c(-c2cccc(Cl)c2)c(CCCOc2ccccc2)n1	nM	0.24

###

- targetEntity: Dihydrofolate reductase (Homo sapiens)
- experimentDescription: Inhibition of human dihydrofolate reductase using dihydrofolate as substrate in presence of NADPH by UV-vis spectrophotometry analysis
- conditionDetails: read-out: Ki
# note: boundary value 20 nM maps to criterion not met; Ki below it maps to criterion met

compoundStructureString	cat
Cl.Nc1nc(N)c(-c2ccccc2)c(CCCCOc2cccc(OCCCC(=O)O)c2)n1	criterion not met
Cl.Nc1nc(N)c(-c2cccc(Cl)c2)c(CCCOc2cccc(OCC(=O)O)c2)n1	criterion met
Cl.Nc1nc(N)c(-c2ccccc2)c(COc2cccc(OCCCC(=O)O)c2)n1	criterion not met
Cl.Nc1nc(N)c(-c2cccc(Cl)c2)c(CCCOc2ccccc2)n1	criterion met
CCc1nc(N)nc(N)c1-c1ccccc1	criterion met
Cl.Nc1nc(N)c(-c2ccccc2)c(CCCCCOc2ccccc2)n1	criterion not met
Cl.Nc1nc(N)c(-c2ccccc2)c(CCc2ccccc2OCc2ccccc2)n1	criterion not met
Cl.Nc1nc(N)c(-c2cccc(Cl)c2)c(CCCCOc2ccccc2)n1	criterion met
Cl.Nc1nc(N)c(-c2ccccc2)c(CCCOc2cccc(OCCCC(=O)O)c2)n1	criterion not met
Cl.Nc1nc(N)c(-c2ccccc2)c(CCCCOc2ccccc2)n1	criterion not met
Cl.Nc1nc(N)c(-c2cccc(Cl)c2)c(CCCCOc2cccc(OCC(=O)O)c2)n1	criterion met
Cl.Nc1nc(N)c(-c2ccccc2)c(CCCOc2cccc(OCC(=O)O)c2)n1	criterion met
Cl.Nc1nc(N)c(-c2ccccc2)c(CCCOc2ccccc2)n1	criterion met
Cl.Nc1nc(N)c(-c2ccccc2)c(COc2cccc(OCC(=O)O)c2)n1	criterion not met
Cl.Nc1nc(N)c(-c2cccc(Cl)c2)c(CCCCOc2cccc(OCCCC(=O)O)c2)n1	criterion not met
Cl.Nc1nc(N)c(-c2ccccc2)c(CCCCOc2cccc(OCC(=O)O)c2)n1	criterion not met
Cl.Nc1nc(N)c(-c2cccc(Cl)c2)c(COc2cccc(OCC(=O)O)c2)n1	criterion not met
Cl.Nc1nc(N)c(-c2cccc(Cl)c2)c(CCCCCOc2ccccc2)n1	criterion met
Cl.Nc1nc(N)c(-c2cccc(Cl)c2)c(CCc2ccccc2OCc2ccccc2)n1	criterion met
CCOC(=O)CCCOc1ccccc1CCc1nc(N)nc(N)c1-c1cccc(Cl)c1	criterion not met
Cl.Nc1nc(N)c(-c2cccc(Cl)c2)c(COc2cccc(OCCCC(=O)O)c2)n1	criterion not met

###

Listed next: entries and their corresponding log10 of IC50.
- Test system: Plasmodium falciparum
- experimentDescription: Antimalarial activity against Plasmodium falciparum TM4/8.2 infected in human erythrocytes assessed as reduction in [3H]-hypoxanthine incorporation pretreated for 24 hrs followed by [3H]-hypoxanthine addition measured after 18 hrs by liquid scintillation counting method
- Type: functional, organism-based
valueType: log10 of IC50 (log10 of the value in nM)

compoundStructureString	valueType	testValue
Cl.Nc1nc(N)c(-c2cccc(Cl)c2)c(CCc2ccccc2OCCCc2ccccc2)n1	log10 of IC50	3.80
Cl.Nc1nc(N)c(-c2ccccc2)c(CCCOc2cccc(OCC(=O)O)c2)n1	log10 of IC50	1.85
Cl.Nc1nc(N)c(-c2cccc(Cl)c2)c(CCCCOc2cccc(OCCCC(=O)O)c2)n1	log10 of IC50	1.71
Cl.Nc1nc(N)c(-c2ccccc2)c(CCCOc2ccccc2)n1	log10 of IC50	2.11
Cl.Nc1nc(N)c(-c2cccc(Cl)c2)c(CCCOc2ccccc2)n1	log10 of IC50	2.23

###

- experimentDescription: Selectivity ratio of IC50 for African green monkey Vero cells to IC50 for Plasmodium falciparum TM4/8.2 infected in human erythrocytes
- Assay type: toxicity, cell-based
- conditionDetails: read-out: Ratio IC50
Listed next: entries and their corresponding selectivity ratio.

compoundStructureString	cmp	selectivity ratio
Cl.Nc1nc(N)c(-c2cccc(Cl)c2)c(CCCOc2ccccc2)n1	=	2.76
Cl.Nc1nc(N)c(-c2ccccc2)c(CCCCOc2cccc(OCC(=O)O)c2)n1	>	17.2
Cl.Nc1nc(N)c(-c2ccccc2)c(CCCCCOc2ccccc2)n1	=	20.8

###

- System: Plasmodium falciparum
- experimentDescription: Antimalarial activity against Plasmodium falciparum TM4/8.2 infected in human erythrocytes assessed as reduction in [3H]-hypoxanthine incorporation pretreated for 24 hrs followed by [3H]-hypoxanthine addition measured after 18 hrs by liquid scintillation counting method
- Assay type: functional, organism-based
pIC50: −log10 of the molar value.
Is pIC50 at least 7? Then 1. If not, 0.

compoundStructureString	cat
Cl.Nc1nc(N)c(-c2ccccc2)c(COc2cccc(OCC(=O)O)c2)n1	0
Cl.Nc1nc(N)c(-c2cccc(Cl)c2)c(CCCCOc2cccc(OCC(=O)O)c2)n1	1
Cl.Nc1nc(N)c(-c2ccccc2)c(CCCOc2cccc(OCCCC(=O)O)c2)n1	1
Cl.Nc1nc(N)c(-c2ccccc2)c(CCCCOc2cccc(OCC(=O)O)c2)n1	1

###

Listed next: entries and their corresponding Ki.
- targetEntity: Dihydrofolate reductase (Homo sapiens, UniProt P00374)
- Sequence (P00374 whole entry): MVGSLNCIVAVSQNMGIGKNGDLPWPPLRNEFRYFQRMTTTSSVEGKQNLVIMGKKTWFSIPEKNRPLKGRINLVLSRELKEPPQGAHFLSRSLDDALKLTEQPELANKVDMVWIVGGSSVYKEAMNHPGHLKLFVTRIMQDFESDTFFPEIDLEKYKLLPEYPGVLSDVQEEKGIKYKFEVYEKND
- experimentDescription: Inhibition of human dihydrofolate reductase using dihydrofolate as substrate in presence of NADPH by UV-vis spectrophotometry analysis
- conditionDetails: read-out: Ki

compoundStructureString	targetEntity	Ki (nM)
Cl.Nc1nc(N)c(-c2ccccc2)c(CCc2ccccc2OCCCc2ccccc2)n1	Dihydrofolate reductase (Homo sapiens, UniProt P00374)	27.3
CCOC(=O)CCCOc1ccccc1CCc1nc(N)nc(N)c1-c1ccccc1.Cl	Dihydrofolate reductase (Homo sapiens, UniProt P00374)	32.4
Cl.Nc1nc(N)c(-c2cccc(Cl)c2)c(CCCOc2cccc(OCCCC(=O)O)c2)n1	Dihydrofolate reductase (Homo sapiens, UniProt P00374)	19.6

###

- System: Vero
- experimentDescription: Cytotoxicity against African green monkey Vero cells by sulforhodamine B assay
- Assay type: cell-based
- conditionDetails: Chlorocebus sabaeus

compoundStructureString	unitAbbrev	cmp	IC50
Cl.Nc1nc(N)c(-c2cccc(Cl)c2)c(CCCCCOc2ccccc2)n1	µM	=	7.21
Cl.Nc1nc(N)c(-c2cccc(Cl)c2)c(CCCOc2ccccc2)n1	µM	=	0.47
Cl.Nc1nc(N)c(-c2ccccc2)c(CCCOc2ccccc2)n1	µM	=	1.39
Cl.Nc1nc(N)c(-c2cccc(Cl)c2)c(CCCCOc2cccc(OCCCC(=O)O)c2)n1	µM	>	100
CCOC(=O)CCCOc1ccccc1CCc1nc(N)nc(N)c1-c1cccc(Cl)c1	µM	=	8.13
Cl.Nc1nc(N)c(-c2ccccc2)c(COc2cccc(OCCCC(=O)O)c2)n1	µM	>	50
Cl.Nc1nc(N)c(-c2ccccc2)c(COc2cccc(OCC(=O)O)c2)n1	µM	>	100
Cl.Nc1nc(N)c(-c2ccccc2)c(CCCCOc2cccc(OCC(=O)O)c2)n1	µM	>	1
Cl.Nc1nc(N)c(-c2ccccc2)c(CCCCOc2ccccc2)n1	µM	=	15.4
Cl.Nc1nc(N)c(-c2cccc(Cl)c2)c(CCc2ccccc2OCc2ccccc2)n1	µM	=	0.4
Cl.Nc1nc(N)c(-c2ccccc2)c(CCCOc2cccc(OCCCC(=O)O)c2)n1	µM	>	25
Cl.Nc1nc(N)c(-c2cccc(Cl)c2)c(CCc2ccccc2OCCCc2ccccc2)n1	µM	=	0.65
CCOC(=O)CCCOc1ccccc1CCc1nc(N)nc(N)c1-c1ccccc1.Cl	µM	>	10
Cl.Nc1nc(N)c(-c2ccccc2)c(CCCCOc2cccc(OCCCC(=O)O)c2)n1	µM	>	100
Cl.Nc1nc(N)c(-c2cccc(Cl)c2)c(CCCOc2cccc(OCC(=O)O)c2)n1	µM	>	50
Cl.Nc1nc(N)c(-c2ccccc2)c(CCCCCOc2ccccc2)n1	µM	=	7.91
Cl.Nc1nc(N)c(-c2ccccc2)c(CCCOc2cccc(OCC(=O)O)c2)n1	µM	>	10
Cl.Nc1nc(N)c(-c2cccc(Cl)c2)c(CCCCOc2cccc(OCC(=O)O)c2)n1	µM	>	50
Cl.Nc1nc(N)c(-c2ccccc2)c(CCc2ccccc2OCCCc2ccccc2)n1	µM	=	4.96
Cl.Nc1nc(N)c(-c2cccc(Cl)c2)c(COc2cccc(OCC(=O)O)c2)n1	µM	>	10
Cl.Nc1nc(N)c(-c2cccc(Cl)c2)c(CCCOc2cccc(OCCCC(=O)O)c2)n1	µM	>	10
Cl.Nc1nc(N)c(-c2cccc(Cl)c2)c(CCCCOc2ccccc2)n1	µM	=	5.15
Cl.Nc1nc(N)c(-c2cccc(Cl)c2)c(COc2cccc(OCCCC(=O)O)c2)n1	µM	>	100
Cl.Nc1nc(N)c(-c2ccccc2)c(CCc2ccccc2OCc2ccccc2)n1	µM	=	1.87
